ASSAY INFO: Henry solubility constant Hcp at 298.15 K (mol/(m3 Pa))
COND: reference: Kutsuna (2013)
Henry solubility constant Hcp for assorted compounds
READOUT: Henry solubility constant Hcp

[
  {
    "COMPOUND": "CC(F)(F)Cl",
    "EXPERIMENTAL RESULT": 0.00015
  },
  {
    "COMPOUND": "CC(F)(Cl)Cl",
    "EXPERIMENTAL RESULT": 0.00029
  },
  {
    "COMPOUND": "FC(Cl)C(F)(F)C(F)(F)Cl (stereo unspecified)",
    "EXPERIMENTAL RESULT": 0.00011
  },
  {
    "COMPOUND": "FC(F)(F)C(Cl)Cl",
    "EXPERIMENTAL RESULT": 0.00023
  },
  {
    "COMPOUND": "FC(F)(F)C(F)(F)C(Cl)Cl",
    "EXPERIMENTAL RESULT": "9.8e-05"
  },
  {
    "COMPOUND": "FC(Cl)C(F)(F)F (stereo unspecified)",
    "EXPERIMENTAL RESULT": 0.00011
  }
]

----------
ASSAY INFO: Henry solubility constant Hcp at 298.15 K (mol/(m3 Pa))
COND: reference: Hovorka et al. (2019)
READOUT: Henry solubility constant Hcp

[
  {
    "SAMPLE SMILES": "CCCCC(C)=O",
    "EXPERIMENTAL RESULT": 0.099
  },
  {
    "SAMPLE SMILES": "CCCC(=O)CC",
    "EXPERIMENTAL RESULT": 0.076
  },
  {
    "SAMPLE SMILES": "CCC(=O)C(C)C",
    "EXPERIMENTAL RESULT": 0.052
  },
  {
    "SAMPLE SMILES": "CCCC(C)=O",
    "EXPERIMENTAL RESULT": 0.13
  },
  {
    "SAMPLE SMILES": "CCC(=O)CC",
    "EXPERIMENTAL RESULT": 0.11
  },
  {
    "SAMPLE SMILES": "CC(=O)C(C)C",
    "EXPERIMENTAL RESULT": 0.093
  },
  {
    "SAMPLE SMILES": "CC(=O)CC(C)C",
    "EXPERIMENTAL RESULT": 0.065
  },
  {
    "SAMPLE SMILES": "CC(=O)C(C)(C)C",
    "EXPERIMENTAL RESULT": 0.043
  }
]

----------
Henry solubility constant Hcp for assorted compounds
ASSAY INFO: Henry solubility constant Hcp at 298.15 K (mol/(m3 Pa))
COND: reference: Fenclová et al. (2010)
READOUT: Henry solubility constant Hcp

[
  {
    "COMPOUND": "CC(C)CCO",
    "EXPERIMENTAL RESULT": 0.82
  },
  {
    "COMPOUND": "CCCC(C)O (stereo unspecified)",
    "EXPERIMENTAL RESULT": 0.71
  },
  {
    "COMPOUND": "CCC(O)CC",
    "EXPERIMENTAL RESULT": 0.64
  },
  {
    "COMPOUND": "CCC(C)(C)O",
    "EXPERIMENTAL RESULT": 0.72
  },
  {
    "COMPOUND": "CCC(C)CO (stereo unspecified)",
    "EXPERIMENTAL RESULT": 0.78
  },
  {
    "COMPOUND": "CC(C)C(C)O (stereo unspecified)",
    "EXPERIMENTAL RESULT": 0.54
  }
]
